Ref: the supplement of paper PMC13380429

# Lookup of reported drug-induced phospholipidosis keyed by entry
# Test system: A549-ACE2
# experimental-details: drug-induced phospholipidosis relative to tamoxifen; higher = more phospholipidosis
# protocol-conditions: 0.833333 µM; 24 h
Where a name gives a salt, the structure may show the parent alone.
Just the number please, in %, no unit attached.

Look up drug-induced phospholipidosis: Cc1nc(Nc2cnn(C3CCNCC3)c2)nc2c1N(C)C(=O)c1cc3ccccc3cc1N2C
6.1

Look up drug-induced phospholipidosis: Cc1ccccc1N(C)C(=O)c1ccc([S+]([O-])c2nccs2)c([N+](=O)[O-])c1 (stereo unspecified)
10.2

Look up drug-induced phospholipidosis: COc1cc(N2CCN(C)CC2)ccc1Nc1nccc(-c2cn(C)c3cnccc23)n1
-3.91

Look up drug-induced phospholipidosis: COc1cc(-c2cc(-c3cccc(O)c3)cnc2N)cc(OC)c1OC
3.08

Look up drug-induced phospholipidosis: C[C@H](N)Cc1c[nH]cn1 [alpha-methylhistamine-dihydrobromide-(S)-(+)]
-2.09

Shift focus to the following entry.
Look up drug-induced phospholipidosis: CC(=O)c1cc([N+](=O)[O-])c(Sc2ccc(F)cc2F)s1
-2.16

====

# System: HepG2
# experimental-details: drug sensitivity score (DSS) for viability; higher = more toxic; extreme values may be limits of the assay
# protocol-conditions: 72 h
# Lookup of reported drug sensitivity score keyed by entry
Reply briefly: the number, and no unit.

Examples from the recorded data:
Look up drug sensitivity score: Nc1ccc(C(=O)Oc2ccccc2)c(O)c1 [phenyl-aminosalicylate]
1

Look up drug sensitivity score: Cc1nc(NC(=O)N2CCC[C@H]2C(N)=O)sc1-c1csc(C(C)(C)C)n1 [A66]
0

Look up drug sensitivity score: N=C(N)NCCN1CCCCCCC1 [guanethidine]
0

Look up drug sensitivity score: CNC(=O)[C@H](Cc1ccccc1)NC(=O)[C@H](CC(C)C)[C@H](CSc1cccs1)C(=O)NO [batimastat]
0

Look up drug sensitivity score: C[C@]12CCC(=O)C=C1CC[C@@H]1[C@@H]2CC[C@@]2(C)[C@H]1CC[C@]2(C)O [17-alpha-Methyltestosterone]
0

Look up drug sensitivity score: COc1ccc(-c2ccc3cc(C(=O)O)ccc3c2)cc1C12CC3CC(CC(C3)C1)C2 [adapalene]
0

Next:
Look up drug sensitivity score: O=C(O)CC1CC(c2ccccc2)=NO1 (centres undefined) [VGX-1027]
0

Look up drug sensitivity score: COc1cccc(-c2cc(F)ccc2[C@H]2Cc3nc(N)nc(C)c3C(=O)N2)n1 [NVP-HSP990]
30

Look up drug sensitivity score: COc1cc(OC)c(/C=C/S(=O)(=O)Cc2ccc(OC)c(OP(=O)(O)O)c2)c(OC)c1 [briciclib]
17

====

# Test system: U2OS
# experimental-details: cell viability relative to DMSO; higher = less toxic
# protocol-conditions: 72 h; 100 nM
# Lookup of reported cell viability keyed by entry
Could you give the number and then its unit, please?

Field: cell viability (U2OS). Entry: Cc1ccc(-c2nn(C(C)(C)CNC(=O)c3ncccc3C)c3ncnc(N)c23)cc1
94.3%

Next:
Field: cell viability (U2OS). Entry: COc1ccccc1N1CCN(CCn2c(=O)[nH]c3c([nH]c4ccccc43)c2=O)CC1
102%

Field: cell viability (U2OS). Entry: CC(=O)[C@H]1CC[C@H]2[C@@H]3CC=C4C[C@@H](O)CC[C@]4(C)[C@H]3CC[C@]12C
93.5%

Field: cell viability (U2OS). Entry: CCCCCCCCCCCCCCCC[n+]1ccccc1
104%

Field: cell viability (U2OS). Entry: C[S+](CC[C@H](N)C(=O)O)C[C@H]1O[C@@H](n2cnc3c(N)ncnc32)[C@H](O)[C@@H]1O (stereo partly drawn)
98.5%

Field: cell viability (U2OS). Entry: Cc1cn2c(N)c(Cl)cc(C(=O)NCC3CCN(CC(C)C)CC3)c2n1
102%

Field: cell viability (U2OS). Entry: C=CC[C@]1(O)CC[C@H]2[C@@H]3CCC4=CCCC[C@@H]4[C@H]3CC[C@@]21C
94.8%

Field: cell viability (U2OS). Entry: CC(C)OC(=O)C1=CN(C(=O)c2ccc(F)c(F)c2)CC(C)(C)c2c1[nH]c1ccccc21
95.9%
